Target: IL-17A (agonist in the IL-17RA/IL17RC dimerization assay) (UniProt Q16552 24-155)
Sequence (Q16552 24-155 limits assumed): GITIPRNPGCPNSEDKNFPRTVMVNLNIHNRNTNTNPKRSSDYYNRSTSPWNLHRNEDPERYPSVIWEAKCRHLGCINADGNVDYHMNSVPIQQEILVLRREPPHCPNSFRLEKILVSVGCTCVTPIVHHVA
Experiment: cell-based or functional assay
measured.quantity: IC50 in IL-17RA/IL7RC dimerization assay

Ask: Could you share which IC50 in IL-17RA/IL7RC dimerization assay value was measured for Ac-VMVTIPADLWDWINK-NH2 [peptide of SEQ ID NO: 4] ?
Result: < 0.1 µM

Ask: Could you share which IC50 in IL-17RA/IL7RC dimerization assay value was measured for Ac-VMVTIPADLYEWIEEVPGDG-NH2 [peptide of SEQ ID NO: 40] ?
Result: < 0.2 µM

Ask: Could you share which IC50 in IL-17RA/IL7RC dimerization assay value was measured for Ac-VRIYLPADLWDWINK-NH2 [peptide of SEQ ID NO: 245] ?
Result: < 10 µM

Ask: Could you share which IC50 in IL-17RA/IL7RC dimerization assay value was measured for Ac-LRGSVPLEIFEWLQH-NH2 [peptide of SEQ ID NO: 253] ?
Result: < 10 µM

Ask: Could you share which IC50 in IL-17RA/IL7RC dimerization assay value was measured for Ac-IHVTLPADLWDWINK-NH2 [peptide of SEQ ID NO: 181] ?
Result: < 10 µM

Ask: Could you share which IC50 in IL-17RA/IL7RC dimerization assay value was measured for Ac-VMVTIPADLYEWIEE-NH2 [peptide of SEQ ID NO: 18] ?
Result: < 0.4 µM

Ask: Could you share which IC50 in IL-17RA/IL7RC dimerization assay value was measured for Ac-IYVTIPADLWDWINK-NH2 [peptide of SEQ ID NO: 166] ?
Result: < 10 µM

Ask: Could you share which IC50 in IL-17RA/IL7RC dimerization assay value was measured for Ac-IHVTILADLWDWINK-NH2 [peptide of SEQ ID NO: 188] ?
Result: < 10 µM

Ask: Could you share which IC50 in IL-17RA/IL7RC dimerization assay value was measured for Ac-IHVTIPADLWDWINR-NH2 [peptide of SEQ ID NO: 10] ?
Result: < 0.4 µM

Ask: Could you share which IC50 in IL-17RA/IL7RC dimerization assay value was measured for Ac-AHVTIPADLWDWINK-NH2 [peptide of SEQ ID NO: 158] ?
Result: < 10 µM

Ask: Could you share which IC50 in IL-17RA/IL7RC dimerization assay value was measured for Ac-IHVTIPADLWDWPNK-NH2 [peptide of SEQ ID NO: 217] ?
Result: < 10 µM

Ask: Could you share which IC50 in IL-17RA/IL7RC dimerization assay value was measured for Ac-VHFQFPQDLWEFVRR-NH2 [peptide of SEQ ID NO: 140] ?
Result: < 0.5 µM

Ask: Could you share which IC50 in IL-17RA/IL7RC dimerization assay value was measured for Ac-VRVTIPQELWEWVRR-NH2 [peptide of SEQ ID NO: 233] ?
Result: < 10 µM

Ask: Could you share which IC50 in IL-17RA/IL7RC dimerization assay value was measured for Ac-IHVTIGADLWDWINK-NH2 [peptide of SEQ ID NO: 187] ?
Result: < 10 µM

From: patent US20220112244A1
